# Test system: RXF 393 renal
# ASSAY OVERVIEW: NCI-60 one-dose screen, 48 h (100 = growth as untreated, 0 = no growth, -100 = all killed)
# EXPERIMENTAL PARAMETERS: 10 µM unless noted
This is part of a sample that, as a whole, favours compounds with a hit. Of some 83,000 tested, about 20% had one in any assay.
ENDPOINT: growth (%)
Could you give me the number in %? Just the number is fine.

The molecule listed as COc1ccc(Nc2c3ccccc3nc3ccccc23)cc1 has a reported growth of 28.1

The molecule listed as CCCCCCCCCCCCCCCCCC1=NCCN1CCNC(C)=O has a reported growth of 99

The molecule listed as O=C(/C=C1\C(=O)N(Cc2ccc([N+](=O)[O-])cc2)c2ccccc21)c1ccc(OCCN2CCCC2)cc1 has a reported growth of 56.7

The molecule listed as CC1=C(C)C(=O)C(C(C)C2=C(C)C(=O)C(C)=C(C)C2=O)=C(C)C1=O has a reported growth of 11.3

The molecule listed as O=C(OCC1CC2(Cl)C(Cl)=C(Cl)C1(Cl)C2(Cl)Cl)C1C(C(=O)OCC2CC3(Cl)C(Cl)=C(Cl)C2(Cl)C3(Cl)Cl)C2(Cl)C(Cl)=C(Cl)C1(Cl)C2(Cl)Cl (stereo not given) has a reported growth of 104

The molecule listed as CCCCCCCCc1ccc(OCCOCC[N+](C)(C)CC)cc1 (tested in a mixture with another compound) has a reported growth of 50.3

The molecule listed as COc1cc(OC)c(/C=C/c2ccc3ccccc3[n+]2C)c(OC)c1 has a reported growth of 34.5

The molecule listed as O=C(/C=C\c1ccccc1Cl)c1ccccc1 has a reported growth of 89.7

The molecule listed as COc1ccc(-c2nc(SCC(C)C)nc(Nc3ccccc3)c2C#N)cc1 has a reported growth of 98.8

The molecule listed as C/C(=N\Nc1ccc(Cl)cn1)c1ccc2ccccc2n1 has a reported growth of 30.5

The molecule listed as O=C(O)CC1Cc2ccccc2C1C(=O)O (stereo not given) has a reported growth of 105

The molecule listed as COc1ccc2c(c1)/C(=C/c1c(-c3cc(OC)c(OC)c(OC)c3)nc3sccn13)C(=O)N2 has a reported growth of 82.4

The molecule listed as COc1cc(-c2c3c(cn2CCN2CCCCC2)-c2oncc2CC3)cc(OC)c1OC has a reported growth of 100

The molecule listed as CCOC(=O)c1cc(-c2ccc(OC)cc2)[nH]c1NNC(=O)CCOC has a reported growth of 104

The molecule listed as O=CN/N=C/c1ccc(Cl)c([N+](=O)[O-])c1 has a reported growth of 40.1

The molecule listed as CCCNC(=O)Oc1ccc(/C(=C(/C)Cc2ccc(OC)cc2)c2ccc(OCCN3CCCC3)cc2)cc1 has a reported growth of 70

The molecule listed as CCCCCCCCCCCCOC(=O)/C=C\C(=O)NC(N)=O has a reported growth of 69.3

The molecule listed as N#Cc1ccc(NC2c3ccccc3CC2O)cc1 (stereo not given) has a reported growth of 89.6

The molecule listed as CC(=O)CC(=O)OC/C=C(/C)CCC=C(C)C has a reported growth of 98
